biological target: GST-fused human Keap1 (amino acid residues: 325-642) protein (Homo sapiens (Human), UniProt Q14145)
Sequence (Q14145 325-624 limits assumed): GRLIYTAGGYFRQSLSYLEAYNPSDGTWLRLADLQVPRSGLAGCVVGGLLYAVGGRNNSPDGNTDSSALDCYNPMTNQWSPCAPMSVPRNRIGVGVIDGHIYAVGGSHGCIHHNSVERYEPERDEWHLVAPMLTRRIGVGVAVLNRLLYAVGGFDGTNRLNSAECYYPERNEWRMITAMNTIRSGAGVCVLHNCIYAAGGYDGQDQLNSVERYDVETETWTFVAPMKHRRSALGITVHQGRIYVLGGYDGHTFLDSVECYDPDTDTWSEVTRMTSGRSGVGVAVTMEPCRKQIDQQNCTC
measured property: IC50

Examples with their reported IC50 follow.
compound	IC50
Cc1c([C@H](c2cc(CN3Cc4nc(O)ccc4OC4(CC4)C3)c3sccc3c2)C(C)(C)C(=O)O)cnc2c1nnn2C	10 to 30 nM
CC[C@H]1Cc2ccc(O)nc2CN(Cc2cc([C@@H](CC(=O)O)c3cc(C)c4c(nnn4C)c3C)cc3ccsc23)C1	≤ 10 nM
CC[C@@H]1CN(Cc2cc([C@H](CC(=O)O)c3cc(C)c4c(nnn4C)c3C)cc3ccsc23)Cc2nc(O)ccc2O1	30 to 300 nM

Here are 3 compounds. What values of IC50 were reported for them?
1. CC[C@@H]1CN(Cc2cc([C@@H](CC(=O)O)c3ccc4c(nnn4CCN(C)C)c3C)cc3ccsc23)Cc2nc(O)ccc2O1
2. CC[C@@H]1CN(Cc2cc([C@@H](CC(=O)O)c3cc(C(F)(F)F)c4c(nnn4C)c3C)cc3ccsc23)Cc2nc(O)ccc2O1
3. Cc1c([C@H](CC(=O)O)c2cc(CN3Cc4nc(O)ccc4O[C@H](C)C3)c3sccc3c2)ccc2c1nnn2C

10 to 30 nM
10 to 30 nM
30 to 300 nM

Please report IC50 for every entry that follows.
1. CC[C@H]1Cc2ccc(O)nc2CN(Cc2cc([C@H](CC(=O)O)c3ccc4c(nnn4C)c3Cl)cc3ccsc23)C1
2. Cc1c([C@@H](CC(=O)O)c2cc(CN3Cc4nc(O)ccc4O[C@@H](C4CC4)C3)c3sccc3c2)ccc2c1nnn2C
3. CC[C@@H]1CN(Cc2cc([C@@H](CC(=O)O)c3cnc4c(nnn4C)c3C)cc3ccsc23)Cc2nc(O)ccc2O1
4. CC[C@@H]1CN(Cc2cc([C@@H](CC(=O)O)c3cnc4c(nnn4C)c3C)cc3ccsc23)Cc2nc(N)ccc2O1
5. CC[C@H]1Cc2cccnc2CN(Cc2cc([C@@H](CC(=O)O)c3cnc4c(nnn4C)c3C)cc3ccsc23)C1

["≤ 10 nM", "30 to 300 nM", "30 to 300 nM", "10 to 30 nM", "10 to 30 nM"]

Give IC50 for each of the items listed below.
1. CC[C@@H]1CN(Cc2cc([C@H](c3cnc4c(nnn4C)c3C)C(C)(C)C(=O)O)cc3ccsc23)Cc2nc(O)ccc2O1
2. CC[C@@H]1CN(Cc2cc([C@H](CC(=O)O)c3ccc4c(nnn4CC(C)(C)O)c3C)cc3ccsc23)Cc2nc(O)ccc2O1
3. CC[C@@H]1CN(Cc2cc([C@H](CC(=O)O)c3cc(OC(F)F)c4c(nnn4C)c3C)cc3ccsc23)Cc2nc(O)ccc2O1
4. CC[C@@H]1CN(Cc2cc([C@H](CC(=O)O)c3cnc4c(nnn4C)c3C)cc3ccsc23)Cc2nc(N)ccc2O1
5. Cc1c(C(CC(=O)O)c2cc(CN3Cc4nc(O)ccc4OC4(CC4)[C@H]3C)c3sccc3c2)ccc2c1nnn2C (single isomer, unassigned) [Example 58]
6. CC[C@H]1Cc2ccc(O)nc2CN(Cc2cc([C@H](CC(=O)O)c3ccc4c(nnn4C)c3C)cc3ccsc23)C1
7. CC[C@@H]1CN(Cc2cc([C@@H](CC(=O)O)c3cc(C4CC4)c4c(nnn4C)c3C)cc3ccsc23)Cc2nc(O)ccc2O1

["300 to 3000 nM", "10 to 30 nM", "≤ 10 nM", "10 to 30 nM", "300 to 3000 nM", "10 to 30 nM", "10 to 30 nM"]

Give measured IC50 for every item shown.
1. CC[C@@H]1CN(Cc2cc([C@@H](CC(=O)O)c3cc(OC(F)(F)F)c4c(nnn4C)c3C)cc3ccsc23)Cc2nc(O)ccc2O1
2. Cc1c([C@H](CC(=O)O)c2cc(CN3Cc4nc(O)ccc4O[C@@H](C(F)(F)F)C3)c3sccc3c2)ccc2c1nnn2C
3. CC[C@@H]1CN(Cc2cc([C@@H](CC(=O)O)c3ccc4c(nnn4CC(F)(F)F)c3C)cc3ccsc23)Cc2nc(O)ccc2O1 (single isomer, unassigned) [Example 27]
4. CC[C@H]1Cc2ccc(O)nc2CN(Cc2cc([C@H](CC(=O)O)c3cc(C)c4c(nnn4C)c3C)cc3ccsc23)C1
5. CC[C@@H]1CN(Cc2cc([C@H](CC(=O)O)c3cc(OC)c4c(nnn4C)c3C)cc3ccsc23)Cc2nc(O)ccc2O1
6. Cc1c(C(CC(=O)O)c2cc(CN3Cc4nc(O)ccc4OC4(CC4)[C@H]3C)c3sccc3c2)ccc2c1nnn2C (single isomer, unassigned) [Example 59]

≤ 10 nM
300 to 3000 nM
10 to 30 nM
≤ 10 nM
≤ 10 nM
300 to 3000 nM

Please look at the items below and tell me IC50 for each one, in order.
1. CC[C@H]1Cc2ccc(O)nc2CN(Cc2cc([C@@H](CC(=O)O)c3cnc4c(nnn4C)c3C)cc3ccsc23)C1
2. CC[C@@H]1CN(Cc2cc([C@@H](CC(=O)O)c3cc(Cl)c4c(nnn4C)c3C)cc3ccsc23)Cc2nc(O)ccc2O1
3. CC[C@H]1Cc2ccc(O)nc2CN(Cc2cc([C@@H](CC(=O)O)c3ccc4c(nnn4C)c3C)cc3ccsc23)C1
4. CC[C@@H]1CN(Cc2cc([C@@H](CC(=O)O)c3cc(C#N)c4c(nnn4C)c3C)cc3ccsc23)Cc2nc(O)ccc2O1

["10 to 30 nM", "≤ 10 nM", "30 to 300 nM", "10 to 30 nM"]
